Tested on: NCI-H522 lung
Assay: NCI tumour cell line growth inhibition, 48 h
quantity.kind: TGI

// solved cases for TGI follow
| molecule | value.measured |
| --- | --- |
| Cn1ccc(=O)c2c(O)c3ccccc3c(O)c21 | > 100 µM |
| C=CCN1CCN([C@H](c2ccc(C(=O)N(CC)CC)cc2)c2cccc(OC)c2)CC1 | > 25 µM |
| O=C(CSc1nc2ccccc2c2ccccc12)c1ccccc1 | > 100 µM |
| Cc1ccc(S(=O)(=O)NC(=O)NC(C(=O)O)C(C)C)cc1 (stereo not given) | > 100 µM |
| O=C1C(Cl)=C(Cl)C(=O)C2=C1C1c3ccccc3C2c2ccccc21 | 33 µM |
| CC(=O)O[C@H]1C(=O)[C@@]2(C)[C@H]([C@H](OC(=O)c3ccccc3)[C@]3(O)C[C@H](OC(=O)[C@H](O)[C@@H](NC(=O)c4ccccc4)c4ccccc4C)C(C)=C1C3(C)C)[C@]1(OC(C)=O)CO[C@@H]1C[C@@H]2O | 4.29 µM |
| COc1cc(/C=C/c2cc(/C=C/c3ccc(O)c(OC)c3)n(-c3c(Cl)cccc3Cl)c(=O)n2)ccc1O | 3.23 µM |
| CC(=O)/C=C/c1ccc(OCc2ccc(C(C)(C)C)cc2)cc1 | > 1000 µM |
| COc1cc(/C=N/n2c(-c3ccccc3)n[nH]c2=O)cc(OC)c1OC | > 58.1 µM |

Next:
Entry under review: CC1CCC(=O)NCCCCC(=O)N1 (stereo not given) . Reported TGI?
> 100 µM

###

Test system: HOP-62 NSCLC
Experiment: NCI tumour cell line growth inhibition, 48 h
quantity.kind: TGI (µM)
Give bare numbers, in µM.

// solved cases for TGI follow
| given.smiles | target | units | TGI |
| --- | --- | --- | --- |
| COc1cc2c(cc1OCCCCCn1c(-c3ccc(OCc4ccccc4)cc3)nc3cc(N4CCOCC4)ccc31)N=C[C@@H]1CCCN1C2=O | HOP-62 NSCLC | µM | 40 |
| CC1=CC(C)(C)[C@H]2O[C@@]3(O)C[C@]4(C)[C@H]5C[C@@](C(C)C)(O[C@H]4c4ccoc4)O[C@H]4[C@]5(C3)O[C@@]1(O)[C@]24O | HOP-62 NSCLC | µM | 82 |

Next:
Entry under review: `COc1cc(/C=C/c2cc(/C=C/c3ccc(O)c(OC)c3)n(-c3c(Cl)cccc3Cl)c(=O)n2)ccc1O` . Reported TGI?
12.8

###

Tested on: HCC-2998 colon
Assay: NCI tumour cell line growth inhibition, 48 h
quantity.kind: TGI

| compound | TGI |
| --- | --- |
| CC(C)=CCC/C(C)=C/CO | > 100 µM |
| CC1=NC(C)(C)[N+]([O-])=C1 | > 10 µM |
| O=C1C(Cl)C(c2cc3cc(Br)ccc3nc2Cl)N1c1ccc(F)c(Cl)c1 (centres undefined) | 21.7 µM |
| CCOC(=O)C(/C=N\C(=S)Nc1c(CC)cccc1C(C)(C)C)=C(/O)c1ccccc1 | > 100 µM |
| O=C1C(c2c(O)[nH]c3ccc([N+](=O)[O-])cc23)=Nc2ccccc21 | > 100 µM |
| Cc1cc2c(O)c(c1)COCc1cc(C)cc(c1O)COCc1cc(C)cc(c1O)COC2 | > 100 µM |

I need TGI for every entry listed below, if you could help.
1. CCCN=Cc1c(O)c(O)c(C(C)C)c2cc(C)c(-c3c(C)cc4c(C(C)C)c(O)c(O)c(C=NCCC)c4c3O)c(O)c12
2. COc1cc(OC)c2c(c1-c1ccc(C)cc1)CC(C)N(Cc1ccccc1)[C@H]2C (some centres undefined)
3. CC(=O)O[C@H]1C(=O)[C@@]2(C)[C@H]([C@H](OC(=O)c3ccccc3)[C@]3(O)C[C@H](OC(=O)[C@H](O)[C@@H](NC(=O)c4ccccc4)c4ccccc4C)C(C)=C1C3(C)C)[C@]1(OC(C)=O)CO[C@@H]1C[C@@H]2O

1: 44.3 µM; 2: > 100 µM; 3: 7.11 µM

###

Test system: HS 578T breast
Test: NCI tumour cell line growth inhibition, 48 h; in the data active means GI50 below about 0.43 µM; inactive means the rest
Give one outcome, nothing more. List: yes for active, no for inactive

Example results:
| compound | target | classification |
| --- | --- | --- |
| CCn1c(=O)c(Oc2ccc(F)cc2F)cc2cnc(NC3CCOCC3)nc21 | HS 578T breast | no |
| CCOC(=O)N1C/C(=C/c2ccc(Cl)cc2)C(=O)/C(=C/c2ccc(Cl)cc2)C1 | HS 578T breast | no |
| Cn1ncc(NC(=O)c2nc(-c3c(F)cccc3F)sc2N)c1N1CC[C@@H](N)[C@H](F)CC1 | HS 578T breast | no |
| Clc1cc(Cl)cc(-c2ccc(-c3ccc(/C=N/NC4=NCCN4)cc3)s2)c1 | HS 578T breast | no |
| C=C1C(=O)O[C@H]2[C@H]1CC/C(COC(=O)/C=C/C(=O)NCc1ccc(Cn3c(=O)sn(-c4ccccc4)c3=O)cc1)=C\CC[C@@]1(C)O[C@@H]21 | HS 578T breast | no |

Hi, sorry to bother you, what did the test record for `COc1ccc(CC(C)=C(c2ccc(OCCN3CCCCCC3)cc2)c2ccc(OCCN3CCCCCC3)cc2)cc1` ?
yes

Hi, sorry to bother you, what did the test record for `O=C1Nc2ccccc2/C1=C\c1c(Cl)nc2sccn12` ?
no

Hi, sorry to bother you, what did the test record for `CN(C)c1cc[n+](/C(NS(=O)(=O)c2cc(C(=O)Nc3ccc(Cl)cc3)c(Cl)cc2[S-])=C(\C#N)C(=O)c2ccccc2)cc1` ?
no

Hi, sorry to bother you, what did the test record for `O=C1C=CC(=O)c2cc3cc(CO)ccc3cc21` ?
no

Hi, sorry to bother you, what did the test record for `c1ccc([P+](c2ccccc2)(c2ccccc2)c2ccc3c4ccc([P+](c5ccccc5)(c5ccccc5)c5ccccc5)c5cccc(c6cccc2c63)c54)cc1` ?
no

Hi, sorry to bother you, what did the test record for `c1ccc2cc(C[n+]3ccn(CCCCCCCCCCCCn4cc[n+](Cc5ccc6ccccc6c5)c4)c3)ccc2c1` ?
no

Hi, sorry to bother you, what did the test record for CCO/C=N/C1=C(C#N)C(c2ccc(OC)cc2)c2sc3c(F)cccc3c2O1 (stereo not drawn) ?
no

Hi, sorry to bother you, what did the test record for `COc1cc2c(cc1OCCCCCn1c(-c3ccc(OCc4ccccc4)cc3)nc3cc(N4CCOCC4)ccc31)N=C[C@@H]1CCCN1C2=O` ?
no

###

Test system: UACC-257 melanoma
Assay: NCI tumour cell line growth inhibition, 48 h
Give TGI for every item shown.

// solved cases for TGI follow
| compound | target | quantity.kind | value.measured |
| --- | --- | --- | --- |
| C[N+](C)(C)CCN(Cc1cccs1)c1ccccn1 | UACC-257 melanoma | TGI | > 100 µM |
| COc1cc2ccnc(C=O)c2cc1OC | UACC-257 melanoma | TGI | > 100 µM |
| CC(N)Cc1ccc(F)cc1 (stereo not given) | UACC-257 melanoma | TGI | > 100 µM |
| CC(C)OC(=O)[C@@H]1OC(C)(C)O[C@H]1C(=O)OC(C)C | UACC-257 melanoma | TGI | > 100 µM |
| C=Cc1nc2nnc(CCCCCCCCc3nnc4nc(C=C)[nH]n34)n2[nH]1 | UACC-257 melanoma | TGI | > 100 µM |
| COC(=O)[C@@H](C)C[C@H](Cc1ccc2ccccc2c1)NC(=O)c1csc([C@@H](C[C@H](C(C)C)N(C)C(=O)[C@@H](NC(=O)[C@H]2CCCCN2C)C(C)C)OC(C)=O)n1 | UACC-257 melanoma | TGI | 9.42 µM |

I need TGI for every entry listed below, if you could help.
1. CCOC(=O)C1=C(Cl)c2cccnc2C1=O
2. c1ccc([P+](c2ccccc2)(c2ccccc2)c2ccc3c4ccc([P+](c5ccccc5)(c5ccccc5)c5ccccc5)c5cccc(c6cccc2c63)c54)cc1
3. CCNC(=O)N(CC)CN(CC)C(=O)NCC
4. c1ccc(C2(c3ccccc3)SSC3(S2)C2CC4CC(C2)CC3C4)cc1 (stereo not given)

["> 100 µM", "8.47 µM", "> 100 µM", "> 100 µM"]

###

Give TGI for every item shown.
Test system: SK-MEL-28 melanoma
Assay: NCI tumour cell line growth inhibition, 48 h
Give bare numbers, in µM.

// solved cases for TGI follow
| given.smiles | quantity.kind | units | value.measured |
| --- | --- | --- | --- |
| COc1cc2c(cc1OCCCCCn1c(-c3ccc(OCc4ccccc4)cc3)nc3cc(N4CCOCC4)ccc31)N=C[C@@H]1CCCN1C2=O | TGI | µM | 4.61 |
| O=[N+]([O-])c1cc(Cl)c(Cl)cc1[N+](=O)[O-] | TGI | µM | 6.04 |

I need TGI for every entry listed below, if you could help.
1. Clc1cc(Cl)cc(-c2ccc(-c3ccc(/C=N/NC4=NCCN4)cc3)s2)c1
2. CCN(CC)CCNc1ccc2nnn3c4ccc([N+](=O)[O-])cc4c(=O)c1c23
3. Cc1ccc(O)c(C(c2ccc(C(c3cc(C)ccc3O)c3cc(C)ccc3O)cc2)c2cc(C)ccc2O)c1

1. 4.69
2. 51.1
3. 3.5
